Substrate: gfPET
experiment.description: Proxy for plastic degradation [Relative activity]
experimental.setup: pH 8
experimental.readout: Proxy for plastic degradation (%)
Please give a number only; it is taken to be in %.

In: Fill blank: measured Proxy for plastic degradation of the protein unnamed (protein) MANPYERGPDPTESSIEAVRGPFAVAQTTVSRLQADGFGGGTIYYPTDTSQGTFGAVAISPGFTAGQESIAWLGPRIASQGFVVITIDTITRLDQPDSRGRQLQAALDHLRTNSVVRNRIDPNRMAVMGHSMGGGGALSAAANNTSLEAAIPLQGWHTRKNWSSVRTPTLVVGAQLDTIAPVSSHSEAFYNSLPSDLDKAYMELRGASHCVSNTPDTTTAKYSIAWLKRFVDDDLRYEQFLCPAPDDFAISEYRSTCPF is ____.
Out: 8

In: Fill blank: measured Proxy for plastic degradation of the protein unnamed (protein) MANPYERGPDPTESSIEAVRGPFAVAQTTVSRLQADGFGGGTIYYPTDTSQGTFGAVAISPGFTAGQESIAWLGPRIASQGFVVITIDTITRLDQPDSRGRQLQAALDHLRTNSVVRNRIDPNRMAVMGHSMGGGGALSAAANNTSLEAAIPLQGWHTRKNWSSVRTPTLVVGAQLDTIAPVSSHSEAFYNSLPSDLDKAYMELRGASHPVSNTPDTTTAKYSIAWLKRFVDDDLRYEQFLCPAPDDFAISEYRSTCPF is ____.
Out: 16

In: Fill blank: measured Proxy for plastic degradation of the protein unnamed (protein) MANPYERGPDPTESSIEAVRGPFAVAQTTVSRLQADGFGGGTIYYPTDTSQGTFGAVAISPGYTAGQESIAWLGPRIASQGFVVITIDTITRLDQPDSRGRQLQAALDHLRTNSVVRNRIDPNRMAVMGHSMGGGGALSAAANNTSLEAAIPLQGWHTRKNWSSVRTPTLVVGAQLDTIAPVSSHSEAFYNSLPSDLDKAYMELRGASHLVSNTPDTTTAKYSIAWLKRFVDDDLRYEQFLCPAPDDFAISEYRSTCPF is ____.
Out: 65

In: Fill blank: measured Proxy for plastic degradation of the protein unnamed (protein) MANPYERGPDPTESSIEAVRGPFAVAQTTVSRLQADGFGGGTIYYPTDTSQGTFGAVAISPGFTAGQESIAWLGPRIASQGFVVITIDTITRLDQPDSRGRQLQAALDHLRTNSVVRNRIDPNRMAVMGHSMGGGGALSAAANNTSLEAAIPLQGWHTRKNWSSVRTPTLVVGAQLDTIAPVSSHSEAFYNSLPSDLDKAYMELRGASHEVSNTPDTTTAKYSIAWLKRFVDDDLRYEQFLCPAPDDFAISEYRSTCPF is ____.
Out: 6

In: Fill blank: measured Proxy for plastic degradation of the protein unnamed (protein) MANPYERGPDPTESSIEAVRGPFAVAQTTVSRLQADGFGGGTIYYPTDTSQGTFGAVAISPGFTAGQESIAWLGPRIASQGFVVITIDTITRLDQPDSRGRQLQAALDHLRTNSVVRNRIDPNRMAVMGHSMGGGGALSAAANNTSLEAAIPLQGWHTRKNWSSVRTPTLVVGAQLDTIAPVSSHSEAFYNSLPSDLDKAYMELRGASHYVSNTPDTTTAKYSIAWLKRFVDDDLRYEQFLCPAPDDFAISEYRSTCPF is ____.
Out: 68

Data credit: the PETadex activity labels (doi:10.1021/acscatal.2c02275)
